Below: a set of entries, each annotated with reported pIC50.
# Study System: acid ceramidase (Homo sapiens)
# Construct: Cell lysates overexpressing acid ceramidase were used as the enzyme source; expressed in transfected cells
# Test: Acid ceramidase inhibition, biochemical fluorescent assay with cell lysates overexpressing acid ceramidase, substrate Rbm14-12
# Assay Conditions: substrate Rbm14-12 6.3 μM, pH 4.5
pIC50: −log10 of the molar value.

Field: example entries. Status: answers known.
{"Compound": "O=C(NCCCc1ccccc1)n1cnc2c(N3CC3F)cccc21 (stereo not drawn)", "Study System": "acid ceramidase (Homo sapiens)", "pIC50": "> 6.70"}
{"Compound": "C[C@@H](CCNC(=O)n1cnc2c(N3CCN(C)CC3)cccc21)c1ccccc1 [Example 253a]", "Study System": "acid ceramidase (Homo sapiens)", "pIC50": "> 6.70"}
{"Compound": "COCCOc1nc2cc(N3CCOCC3)ccc2n1C(=O)NCCCc1ccccc1 [Example 190a]", "Study System": "acid ceramidase (Homo sapiens)", "pIC50": "> 6.70"}

Entry O=C1CCC2CN(c3cccc4c3ncn4C(=O)NCCCc3ccccc3)CCN12 (stereo not drawn) , acid ceramidase (Homo sapiens) data, pIC50 value: > 6.70

Entry `COc1nc2cc(C3CCN(C)CC3)ccc2n1C(=O)NCC(C)C` , acid ceramidase (Homo sapiens) data, pIC50 value: < 6.00

Entry `CC(C)CCNC(=O)n1cnc2c(N3CCOC[C@@H]3C)cccc21` , acid ceramidase (Homo sapiens) data, pIC50 value: 6.00 to 6.70

Entry `CC(C)(C)CCCNC(=O)n1cnc2c(N3CCOCC3)cccc21` , acid ceramidase (Homo sapiens) data, pIC50 value: > 6.70

Entry COc1nc2ccc(N3CCOCC3)cc2n1C(=O)NCCCOC(F)(F)F [Example 233a] , acid ceramidase (Homo sapiens) data, pIC50 value: 6.00 to 6.70

Entry COc1nc2ccc(C3CCN(C)CC3)cc2n1C(=O)NCCCc1ccccc1 [Example 195b] , acid ceramidase (Homo sapiens) data, pIC50 value: < 6.00

---

Below: a set of entries, each annotated with reported pIC50.
# Study System: acid ceramidase (Homo sapiens, UniProt Q13510)
# Construct: Cell lysates overexpressing acid ceramidase were used as the enzyme source; expressed in transfected cells
# Sequence (Q13510 22-395): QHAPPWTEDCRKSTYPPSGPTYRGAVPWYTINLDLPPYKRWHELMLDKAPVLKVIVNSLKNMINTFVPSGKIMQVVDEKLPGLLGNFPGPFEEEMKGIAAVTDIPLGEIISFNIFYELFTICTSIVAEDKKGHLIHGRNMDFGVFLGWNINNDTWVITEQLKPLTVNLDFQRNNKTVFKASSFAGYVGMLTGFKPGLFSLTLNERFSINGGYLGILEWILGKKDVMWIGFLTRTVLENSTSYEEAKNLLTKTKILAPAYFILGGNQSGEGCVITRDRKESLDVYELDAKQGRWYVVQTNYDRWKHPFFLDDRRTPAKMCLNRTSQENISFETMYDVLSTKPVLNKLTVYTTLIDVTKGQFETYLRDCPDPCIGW
# Test: Acid ceramidase inhibition, biochemical fluorescent assay with cell lysates overexpressing acid ceramidase, substrate Rbm14-12
# Assay Conditions: substrate Rbm14-12 6.3 μM, pH 4.5
pIC50: −log10 of the molar value.

Field: example entries. Status: answers known.
{"Compound": "N#CCCN1CCN(c2cccc3c2ncn3C(=O)NCCCc2ccccc2)CC1", "Assay Readout": "pIC50", "Measurement": "> 6.70"}
{"Compound": "CN1CCN(c2cccc3c2ncn3C(=O)NCCCC(F)(F)F)CC1", "Assay Readout": "pIC50", "Measurement": "6.00 to 6.70"}
{"Compound": "C[C@H](CCNC(=O)n1cnc2c(N3CCN(C)CC3)cccc21)c1ccccc1 [Example 253b]", "Assay Readout": "pIC50", "Measurement": "> 6.70"}
{"Compound": "CC(C)CCNC(=O)n1cnc2c(N3CCO[C@H](C(C)C)C3)cccc21 [Example 172b]", "Assay Readout": "pIC50", "Measurement": "6.00 to 6.70"}
{"Compound": "COc1nc2ccccc2n1C(=O)NCCCCn1ccc(C(C)(C)C)n1", "Assay Readout": "pIC50", "Measurement": "6.00 to 6.70"}
{"Compound": "COc1nc2cc(F)c(N3CCOCC3)cc2n1C(=O)NCCCCc1ccccc1", "Assay Readout": "pIC50", "Measurement": "> 6.70"}
{"Compound": "CN1CCN(c2cccc3c2ncn3C(=O)NCC#Cc2ccccc2)CC1", "Assay Readout": "pIC50", "Measurement": "> 6.70"}
{"Compound": "CC(=O)N1CCN(c2cccc3c2ncn3C(=O)NCCCc2ccccc2)CC1", "Assay Readout": "pIC50", "Measurement": "> 6.70"}

Query CC(C)CCNC(=O)n1cnc2c(N3CC3C(F)(F)F)cccc21 (stereo not drawn) yields pIC50 of > 6.70

Query `COc1nc2c(N3CCOCC3)cc(F)cc2n1C(=O)NCCC(C)C` yields pIC50 of 6.00 to 6.70

Query `CN1CCN(C2CN(c3cccc4c3ncn4C(=O)NCCOc3ccccc3)C2)CC1` yields pIC50 of > 6.70

Query CNC1CCN(c2cccc3c2ncn3C(=O)NCC#CC(C)C)C1 (stereo not drawn) yields pIC50 of > 6.70

Query COc1nc2ccc(N3CCOCC3)cc2n1C(=O)NCC1CC1Cc1ccccc1 (stereo not drawn) [Example 231a] yields pIC50 of 6.00 to 6.70

Origin of the recorded values: patent US20220380319A1
